We begin with a simple list: items and their reported % cleavage MMP-9 t = 120 min.
Target: MMP-9 (Homo sapiens, UniProt P14780)
Construct: purchased SIGMA PF024
Sequence (P14780 94-707): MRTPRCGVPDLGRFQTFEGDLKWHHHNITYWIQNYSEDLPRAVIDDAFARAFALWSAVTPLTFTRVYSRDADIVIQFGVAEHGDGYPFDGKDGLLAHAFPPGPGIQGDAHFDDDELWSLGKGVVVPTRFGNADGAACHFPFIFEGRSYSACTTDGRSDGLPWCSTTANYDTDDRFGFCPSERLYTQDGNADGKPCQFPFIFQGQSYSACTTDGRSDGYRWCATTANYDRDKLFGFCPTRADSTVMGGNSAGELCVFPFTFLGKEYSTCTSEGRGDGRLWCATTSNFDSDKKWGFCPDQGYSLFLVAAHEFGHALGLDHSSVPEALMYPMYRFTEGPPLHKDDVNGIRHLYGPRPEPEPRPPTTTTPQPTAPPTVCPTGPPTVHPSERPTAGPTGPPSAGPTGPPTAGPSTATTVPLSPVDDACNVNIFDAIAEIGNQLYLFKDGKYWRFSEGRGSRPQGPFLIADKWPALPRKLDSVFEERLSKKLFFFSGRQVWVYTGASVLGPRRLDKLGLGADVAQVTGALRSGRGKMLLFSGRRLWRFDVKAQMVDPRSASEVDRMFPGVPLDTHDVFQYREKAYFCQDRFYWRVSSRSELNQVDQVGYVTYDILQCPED
Experiment: FRET peptide cleavage efficiency with MMP-9 (standard pH 7.5; also pH 6.5)
Assay type: biochemical
Conditions: t = 120 min (Table 9)
Square brackets hold non-standard residues; d marks the D form. Ends that are not written are not given here. Tyr(3-NO2) = N[C@@H](Cc1ccc(O)c([N+](=O)[O-])c1)C(=O)O; Nle = CCCC[C@H](N)C(=O)O; 2Abz = Nc1ccccc1C(=O)O
Endpoint Name: % cleavage MMP-9 t = 120 min

>>> result("RQRKVANLVG ([2Abz]RQRKVANLVG[Tyr(3-NO2)]-NH2) [LNK032]")
"100%"
>>> result("RGRRHSSKLQ ([2Abz]RGRRHSSKLQ[Tyr(3-NO2)]-NH2) [LNK052]")
"0%"
>>> result("RSSYRSL ([2Abz]RSSYRSL[Tyr(3-NO2)]-NH2) [LNK075]")
"10%"
>>> result("SGRVANYFGKL ([2Abz]SGRVANYFGKL[Tyr(3-NO2)]-NH2) [LNK054]")
"100%"
>>> result("SGRVQPLVD (not fully specified (N-terminus, C-terminus)) [LNK047]")
"4%"
>>> result("SGRVLRKAGPANLVG ([2Abz]SGRVLRKAGPANLVG[Tyr(3-NO2)]-NH2) [LNK014]")
"100%"
>>> result("SGRHSSKLQPLGYFGKL ([2Abz]SGRHSSKLQPLGYFGKL[Tyr(3-NO2)]-NH2) [LNK063]")
"100%"
>>> result("RQRRSPLGLAG ([2Abz]RQRRSPLGLAG[Tyr(3-NO2)]-NH2) [LNK010]")
"100%"
>>> result("RGRKSPQPLVD ([2Abz]RGRKSPQPLVD[Tyr(3-NO2)]-NH2) [LNK040]")
"89%"
>>> result("RGRKSPYMLQG ([2Abz]RGRKSPYMLQG[Tyr(3-NO2)]-NH2) [LNK037]")
"100%"
>>> result("SSRGPYMLQG ([2Abz]SSRGPYMLQG[Tyr(3-NO2)]-NH2) [LNK022]")
"100%"
>>> result("HSSKLQYFGKL ([2Abz]HSSKLQYFGKL[Tyr(3-NO2)]-NH2) [LNK061]")
"0%"
>>> result("RGRKPQPLVD ([2Abz]RGRKPQPLVD[Tyr(3-NO2)]-NH2) [LNK039]")
"94%"
>>> result("RGRRAANLVRPLGYFGKL ([2Abz]RGRRAANLVRPLGYFGKL[Tyr(3-NO2)]-NH2) [LNK060]")
"100%"
>>> result("RGRRHSSKLQPLGYFGKL ([2Abz]RGRRHSSKLQPLGYFGKL[Tyr(3-NO2)]-NH2) [LNK062]")
"100%"
>>> result("RGRRPLGLAG ([2Abz]RGRRPLGLAG[Tyr(3-NO2)]-NH2) [LNK049]")
"100%"
>>> result("RGRRVANPLGYFGKL ([2Abz]RGRRVANPLGYFGKL[Tyr(3-NO2)]-NH2) [LNK058]")
"100%"
>>> result("RGRKSPANLVG ([2Abz]RGRKSPANLVG[Tyr(3-NO2)]-NH2) [LNK034]")
"100%"
>>> result("SGRVAGLVG ([2Abz]SGRVAGLVG[Tyr(3-NO2)]-NH2) [LNK016]")
"67%"
>>> result("RGRKPYMLQG ([2Abz]RGRKPYMLQG[Tyr(3-NO2)]-NH2) [LNK035]")
"100%"
>>> result("RGRRVANLVG ([2Abz]RGRRVANLVG[Tyr(3-NO2)]-NH2) [LNK033]")
"100%"
>>> result("RGRRVANYFGKL ([2Abz]RGRRVANYFGKL[Tyr(3-NO2)]-NH2) [LNK055]")
"100%"
>>> result("RGRKVANLVG ([2Abz]RGRKVANLVG[Tyr(3-NO2)]-NH2) [LNK031]")
"100%"
>>> result("SGRVANPLGGSG ([2Abz]SGRVANPLGGSG[Tyr(3-NO2)]-NH2) [LNK053]")
"4%"
>>> result("SGRVYMLQG ([2Abz]SGRVYMLQG[Tyr(3-NO2)]-NH2) [LNK044]")
"2%"
>>> result("RGRRSGRAANLVRPLGYFGKL ([2Abz]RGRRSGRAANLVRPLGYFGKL[Tyr(3-NO2)]-NH2) [LNK059]")
"100%"
>>> result("SGRVAPY-Nle-LQG ([2Abz]SGRVAPY[Nle]LQG[Tyr(3-NO2)]-NH2) [LNK043]")
"100%"

----------
Molecular target: MMP-2 (Homo sapiens, UniProt P08253)
Construct: purchased SIGMA PF023
Sequence (P08253 110-660): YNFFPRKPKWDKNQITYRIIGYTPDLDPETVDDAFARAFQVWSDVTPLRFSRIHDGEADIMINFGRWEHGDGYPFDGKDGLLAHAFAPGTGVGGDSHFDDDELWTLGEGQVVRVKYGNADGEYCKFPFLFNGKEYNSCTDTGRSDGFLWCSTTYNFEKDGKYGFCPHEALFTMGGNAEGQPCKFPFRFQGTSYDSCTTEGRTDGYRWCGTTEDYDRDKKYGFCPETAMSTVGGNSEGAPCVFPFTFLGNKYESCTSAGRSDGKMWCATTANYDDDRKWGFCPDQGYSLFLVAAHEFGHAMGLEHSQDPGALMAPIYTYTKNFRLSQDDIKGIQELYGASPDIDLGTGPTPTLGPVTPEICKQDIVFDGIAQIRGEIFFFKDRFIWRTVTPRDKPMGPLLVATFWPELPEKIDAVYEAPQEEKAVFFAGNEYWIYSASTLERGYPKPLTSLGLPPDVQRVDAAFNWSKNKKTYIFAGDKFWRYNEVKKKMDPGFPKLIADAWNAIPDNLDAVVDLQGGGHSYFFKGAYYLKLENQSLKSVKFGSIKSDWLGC
Test: FRET peptide cleavage efficiency with MMP-2
Format: biochemical
Conditions: t = 15 min (Table 9)
Square brackets hold non-standard residues; d marks the D form. Ends that are not written are not given here. Tyr(3-NO2) = N[C@@H](Cc1ccc(O)c([N+](=O)[O-])c1)C(=O)O; 2Abz = Nc1ccccc1C(=O)O
Endpoint Name: % cleavage MMP-2 t = 15 min (%)

>>> readout_number("RGRRVANPLGYFGKL ([2Abz]RGRRVANPLGYFGKL[Tyr(3-NO2)]-NH2) [LNK058]")
68
>>> readout_number("RGRRPLGYFGKL ([2Abz]RGRRPLGYFGKL[Tyr(3-NO2)]-NH2) [LNK057]")
71
>>> readout_number("SGRVAGLVG ([2Abz]SGRVAGLVG[Tyr(3-NO2)]-NH2) [LNK016]")
72

----------
We begin with a simple list: items and their reported % cleavage Matriptase t = 60 min.
Target: matriptase (Homo sapiens)
Construct: purchased R&D Systems 3946-SEB
Sequence (Q9Y5Y6 615-855 limits assumed): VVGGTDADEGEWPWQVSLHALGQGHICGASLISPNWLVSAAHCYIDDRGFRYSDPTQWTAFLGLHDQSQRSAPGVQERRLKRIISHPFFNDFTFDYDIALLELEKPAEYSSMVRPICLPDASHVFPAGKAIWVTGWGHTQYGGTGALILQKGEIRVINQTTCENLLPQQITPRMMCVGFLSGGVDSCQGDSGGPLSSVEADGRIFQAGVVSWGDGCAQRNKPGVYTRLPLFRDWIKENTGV
Experiment: FRET peptide cleavage efficiency with matriptase
Format: biochemical
Details: t = 60 min; 200 uM linker, 1 ug/ml protease, 37° C., buffer B pH 9.0
Square brackets hold non-standard residues; d marks the D form. Ends that are not written are not given here. Tyr(3-NO2) = N[C@@H](Cc1ccc(O)c([N+](=O)[O-])c1)C(=O)O; 2Abz = Nc1ccccc1C(=O)O
Endpoint Name: % cleavage Matriptase t = 60 min (%)

>>> readout_number("SGRVLTLRKAPWGLLE ([2Abz]SGRVLTLRKAPWGLLE[Tyr(3-NO2)]-NH2) [LNK004]")
98
>>> readout_number("HSSKLQYFGKL ([2Abz]HSSKLQYFGKL[Tyr(3-NO2)]-NH2) [LNK061]")
0
>>> readout_number("GSSVYSGR ([2Abz]GSSVYSGR[Tyr(3-NO2)]-NH2) [LNK080]")
6
>>> readout_number("RGRRVANYFGKL ([2Abz]RGRRVANYFGKL[Tyr(3-NO2)]-NH2) [LNK055]")
100
>>> readout_number("RGRRHSSKLQ ([2Abz]RGRRHSSKLQ[Tyr(3-NO2)]-NH2) [LNK052]")
100
>>> readout_number("SGRVLTLRKAGPAGLVG ([2Abz]SGRVLTLRKAGPAGLVG[Tyr(3-NO2)]-NH2) [LNK011]")
99
>>> readout_number("KLYSSKQ ([2Abz]KLYSSKQ[Tyr(3-NO2)]-NH2) [LNK071]")
0
>>> readout_number("SSRVFRKPANLAG ([2Abz]SSRVFRKPANLAG[Tyr(3-NO2)]-NH2) [LNK019]")
97
>>> readout_number("SGRVAGLVG ([2Abz]SGRVAGLVG[Tyr(3-NO2)]-NH2) [LNK016]")
70

Numbers sourced from patent US20240400614A1.
